- Test target: norepinephrine transporter (NET) (Rattus norvegicus)
- Sequence (Q63380 1-617): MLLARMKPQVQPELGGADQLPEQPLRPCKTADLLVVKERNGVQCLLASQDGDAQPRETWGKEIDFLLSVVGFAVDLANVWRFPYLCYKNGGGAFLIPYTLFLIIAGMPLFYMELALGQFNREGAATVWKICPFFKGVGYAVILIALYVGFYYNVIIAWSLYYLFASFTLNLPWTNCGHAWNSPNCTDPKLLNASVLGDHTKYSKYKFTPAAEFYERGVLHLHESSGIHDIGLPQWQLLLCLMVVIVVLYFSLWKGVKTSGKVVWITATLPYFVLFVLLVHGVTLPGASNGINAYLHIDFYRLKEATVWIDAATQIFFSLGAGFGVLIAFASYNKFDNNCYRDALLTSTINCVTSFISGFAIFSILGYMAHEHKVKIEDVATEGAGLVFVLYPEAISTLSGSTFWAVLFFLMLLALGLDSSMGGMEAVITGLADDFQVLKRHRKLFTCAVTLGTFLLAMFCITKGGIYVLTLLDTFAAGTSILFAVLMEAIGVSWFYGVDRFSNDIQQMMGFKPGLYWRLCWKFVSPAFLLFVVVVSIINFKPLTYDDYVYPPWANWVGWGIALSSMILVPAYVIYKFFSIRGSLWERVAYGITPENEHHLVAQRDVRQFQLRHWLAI
- Stated conditions: read-out: Ki (nM) ± S.E.M. NET; rat brain membranes; Table 1 thioacetamides and sulfinylacetamides
Recorded endpoint: Ki

Example cases with answers are listed next.
NC(=O)CSC(c1cccc(Cl)c1)c1cccc(Cl)c1	34000 nM
Cc1ccc(C(c2ccc(C)cc2)[S+]([O-])CC(N)=O)cc1 (stereo not drawn) [Compound 3a, 2-((Di-p-tolylmethyl)sulfinyl)acetamide]	> 100000 nM

Which Ki value is on record for CNC(=O)CSC(c1ccc(Br)cc1)c1ccc(Br)cc1 ? 11200 nM
